# Test description: Pharmacokinetic evaluation in rat plasma after oral administration
# Type: in vivo
# Test parameters: SD male rats, 30 mg/kg
Measurement name: Cmax (µM)
Entry rule: numbers only, all in µM.

Consider the molecule Cc1cc2ncnn2cc1Nc1ncc2c(n1)n(N1CC3CCC(C1)O3)c(=O)n2C [Crystal form A of the compound of formula (I)] and give its measured Cmax.
14.6

Reported Cmax for Cc1cc2ncnn2cc1Nc1ncc2c(n1)n(N1CC3CCC(C1)O3)c(=O)n2C [Crystal form K of the compound of formula (VIII-1)] : what is it?
21.7

---

# Test description: Pharmacokinetic evaluation in rat plasma after oral administration
# Format: in vivo
# Test parameters: male, SD, rat, po, 30 mg/kg, SD male rats
Measurement name: Cmax (µM)
Give just the numeric value; µM need not be written.

// lookup Cmax for Cc1cc2ncnn2cc1Nc1ncc2c(n1)n(N1CC3CCC(C1)O3)c(=O)n2C
11.1

---

# Test description: Pharmacokinetic evaluation in rat plasma after oral administration
# Format: in vivo
# Test parameters: male, SD, rat, po, 30 mg/kg, SD male rats
Measurement name: AUC(0-t)
Be sure to follow the number with its unit.

Look up AUC(0-t): Cc1cc2ncnn2cc1Nc1ncc2c(n1)n(N1CC3CCC(C1)O3)c(=O)n2C
87.4 µM·h

Reference source: patent US20240254145A1
